- system-under-test: T1, PhNob1 (Pyrococcus horikoshii, UniProt O58440 1-161)
- T1 sequence: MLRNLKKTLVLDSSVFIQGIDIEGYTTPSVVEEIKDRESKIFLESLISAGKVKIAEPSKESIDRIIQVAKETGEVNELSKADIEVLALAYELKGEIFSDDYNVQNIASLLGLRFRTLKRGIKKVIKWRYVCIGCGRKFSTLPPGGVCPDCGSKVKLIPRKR
- assay-protocol: fluorescence anisotropy

>  <binder>
GACUGCCGGCGAUAAGCCGGAGGAAG (structured_RNA) [PhH40 (helix 40)]

>  <Kd>
2 µM

$$$$
